target: D(2) dopamine receptor (Homo sapiens, UniProt P14416); assay: The compound's binding affinity against Dopamine receptor D2
Sequence (P14416 whole entry): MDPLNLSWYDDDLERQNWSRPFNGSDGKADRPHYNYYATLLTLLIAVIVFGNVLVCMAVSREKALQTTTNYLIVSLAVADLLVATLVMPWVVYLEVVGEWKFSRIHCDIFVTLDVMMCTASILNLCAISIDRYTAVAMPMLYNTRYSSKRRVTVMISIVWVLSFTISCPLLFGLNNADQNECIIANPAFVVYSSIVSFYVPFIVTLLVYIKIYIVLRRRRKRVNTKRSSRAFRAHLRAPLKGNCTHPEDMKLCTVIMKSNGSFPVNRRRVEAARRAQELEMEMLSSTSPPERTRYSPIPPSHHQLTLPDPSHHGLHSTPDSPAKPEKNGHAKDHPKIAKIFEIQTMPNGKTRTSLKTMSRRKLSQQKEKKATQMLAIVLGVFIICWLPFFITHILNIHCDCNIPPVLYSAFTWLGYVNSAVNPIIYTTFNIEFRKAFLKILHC

structure	Ki / nM
CN(C)C(=O)c1cccnc1NCCCN1CCN(c2ccccc2-c2ccccc2)CC1	126

* * *

Molecular target: Alpha-2B adrenergic receptor (Rattus norvegicus)
Sequence (P19328 whole entry): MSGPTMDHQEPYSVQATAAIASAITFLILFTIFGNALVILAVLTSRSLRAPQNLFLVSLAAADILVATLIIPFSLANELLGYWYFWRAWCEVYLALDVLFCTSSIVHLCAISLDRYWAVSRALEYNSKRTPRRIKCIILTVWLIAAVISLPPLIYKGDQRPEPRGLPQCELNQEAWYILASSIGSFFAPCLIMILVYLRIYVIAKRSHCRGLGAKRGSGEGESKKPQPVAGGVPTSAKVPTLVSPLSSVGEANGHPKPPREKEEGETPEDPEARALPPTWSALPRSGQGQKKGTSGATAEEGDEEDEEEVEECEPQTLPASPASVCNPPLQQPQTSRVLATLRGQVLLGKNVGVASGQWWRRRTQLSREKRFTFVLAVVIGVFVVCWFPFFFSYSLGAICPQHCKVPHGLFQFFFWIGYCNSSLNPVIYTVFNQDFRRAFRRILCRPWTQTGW
Assay: The compound's binding affinity against Alpha-2B adrenergic receptor from rat kidney homogenate in the presence of phentolamine
pKi: −log10 of the molar value.

structure	pKi
CN(C)C(=O)c1cccnc1NCCCN1CCN(c2ccccc2-c2ccccc2)CC1	7.10

* * *

Reported pKi values are given for each entry in this list.
Molecular target: 5-hydroxytryptamine receptor 1A (Mus musculus) (UniProt Q64264)
Sequence (whole entry): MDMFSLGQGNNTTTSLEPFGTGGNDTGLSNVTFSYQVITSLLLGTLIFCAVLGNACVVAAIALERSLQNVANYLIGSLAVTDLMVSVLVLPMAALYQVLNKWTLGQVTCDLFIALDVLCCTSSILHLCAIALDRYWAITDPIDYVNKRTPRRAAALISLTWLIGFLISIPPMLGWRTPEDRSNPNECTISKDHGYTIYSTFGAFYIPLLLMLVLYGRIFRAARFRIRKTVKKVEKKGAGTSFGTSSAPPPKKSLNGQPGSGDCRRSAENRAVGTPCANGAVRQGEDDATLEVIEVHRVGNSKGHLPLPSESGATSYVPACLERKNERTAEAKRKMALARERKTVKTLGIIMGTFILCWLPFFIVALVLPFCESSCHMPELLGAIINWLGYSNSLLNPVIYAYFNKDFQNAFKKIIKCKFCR
Test: The compound's binding affinity against 5-hydroxytryptamine 1A receptor

structure	pKi
COc1ccccc1N1CCN(CCCNc2ncccc2C(=O)N(C)C)CC1	7.6
Cc1nn(C)c2ncc(C(=O)N(C)C)c(NCCCN3CCN(c4ccccc4OCC(F)(F)F)CC3)c12	7.5
COc1cc(F)ccc1N1CCN(CCCNc2ncccc2C(=O)N(C)C)CC1	6.7
COc1cc(F)ccc1N1CCN(CCCNc2c(C(=O)N(C)C)cnc3c2c(C)nn3C)CC1	6.5

* * *

target: Alpha-1D adrenergic receptor (Rattus norvegicus, UniProt P23944); assay: Antagonistic activity against rat aorta for affinity estimates representative of the Alpha-1D adrenergic receptor; format: functional, tissue-based; details: read-out: pA2 (converted)
Sequence (P23944 whole entry): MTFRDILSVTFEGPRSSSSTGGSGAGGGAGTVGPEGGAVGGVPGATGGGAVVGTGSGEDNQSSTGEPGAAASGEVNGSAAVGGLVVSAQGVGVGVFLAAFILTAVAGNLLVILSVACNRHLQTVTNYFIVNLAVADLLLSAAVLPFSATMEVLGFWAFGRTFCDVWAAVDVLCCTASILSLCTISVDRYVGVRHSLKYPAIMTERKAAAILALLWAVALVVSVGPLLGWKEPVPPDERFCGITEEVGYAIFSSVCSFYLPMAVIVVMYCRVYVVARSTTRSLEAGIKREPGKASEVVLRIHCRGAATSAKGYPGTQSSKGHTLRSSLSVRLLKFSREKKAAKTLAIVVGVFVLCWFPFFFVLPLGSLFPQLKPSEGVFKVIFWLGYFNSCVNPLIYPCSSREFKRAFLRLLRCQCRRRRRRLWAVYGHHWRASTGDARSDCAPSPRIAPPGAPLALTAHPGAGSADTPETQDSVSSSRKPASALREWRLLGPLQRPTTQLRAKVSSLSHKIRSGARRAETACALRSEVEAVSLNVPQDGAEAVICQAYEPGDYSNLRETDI
property label: log10(Kb) (log10 of the value in nM)

structure	log10(Kb)
COc1ccccc1N1CCN(CCCNc2nc(C)cc(C)c2C(N)=O)CC1	1.60
CCOc1ccccc1N1CCN(CCCNc2ncccc2C(=O)N(C)C)CC1	0.90
CN(C)C(=O)c1cccnc1NCCCN1CCN(c2ccccc2OC(F)(F)F)CC1	2.00
CN(C)C(=O)c1cccnc1NCCCN1CCN(c2ccccc2Cc2ccccc2)CC1	1.90
COc1ccccc1N1CCN(CCC(=O)Nc2ccccc2C(=O)N(C)C)CC1	1.80
COc1ccccc1N1CCN(CCCNc2ncc(C#N)cc2C(=O)N(C)C)CC1	1.30
COc1cc(O)ccc1N1CCN(CCCNc2ncccc2C(=O)N(C)C)CC1	1.90
COc1ccccc1N1CCN(CCCNc2ccccc2C(=O)c2ccccc2)CC1	1.00
COc1cc(F)ccc1N1CCN(CCCNc2c(C(=O)N(C)C)c[nH]c3c(Cl)cn[n+]2-3)CC1	2.20
COc1cc(F)ccc1N1CCN(CCCNc2c(C(=O)N(C)C)cnc3c(C(N)=O)cccc23)CC1	2.20
CN(C)C(=O)c1cccnc1NCCCN1CCN(c2ccccc2C#N)CC1	1.00
CNC(=O)c1cccnc1NCCCN1CCN(c2ccccc2OC)CC1	0.50
CN(C)C(=O)c1cnc2ccccc2c1NCCCN1CCN(c2ccccc2OCC(F)(F)F)CC1	2.00
COc1cc(F)ccc1N1CCN(CCCNc2c(C(=O)N(C)C)cnc3c(C#N)cccc23)CC1	2.60
CN(C)C(=O)c1cccnc1NCCCN1CCN(c2ccccc2OCC(F)(F)F)CC1	1.20
CN(C)C(=O)c1cccnc1NCCCN1CCN(c2ccccc2C(F)(F)F)CC1	2.50
COc1ccccc1N1CCN(CCCNc2ccc(C)cc2C(=O)N(C)C)CC1	1.30
COc1ccccc1N1CCN(CCCNc2ncncc2C(=O)N(C)C)CC1	1.70
COc1ccccc1N1CCN(CCCNc2ncccc2C(=O)C(C)(C)C)CC1	0.80
CCCc1ccccc1N1CCN(CCCNc2ncccc2C(=O)N(C)C)CC1	1.50
CN(C)C(=O)c1cccnc1NCCCN1CCN(c2ccccc2C2CC2)CC1	1.80
COc1ccccc1N1CCN(CCCNc2ncccc2C(N)=O)CC1	1.00
COc1cc(F)ccc1N1CCN(CCCNc2ncccc2C(=O)N(C)C)CC1	1.80
CN(C)C(=O)c1cccnc1NCCCN1CCN(c2ccccc2OCC2CC2)CC1	1.00
CN(C)C(=O)c1cnc2c(Cl)cccc2c1NCCCN1CCN(c2ccccc2OCC(F)(F)F)CC1	2.10
COc1ccccc1N1CCN(CCCNc2ccncc2C(=O)N(C(C)C)C(C)C)CC1	2.40
CN(C)C(=O)c1cccnc1NCCCN1CCN(c2ccccc2)CC1	1.20
COc1cc(F)ccc1N1CCN(CCCNc2c(C(=O)N(C)C)c[nH]c3ccn[n+]2-3)CC1	2.00
CN(C)C(=O)c1cccnc1N1CCC(NCCOc2ccccc2-c2cncnc2)CC1	3.40
COc1ccccc1N1CCN(CCCNc2ccncc2C(=O)N(C)C)CC1	1.70
CN(C)C(=O)c1cccnc1NCCCN1CCN(c2ccccc2-c2ccccc2)CC1	1.80
COc1ccccc1N1CCN(CCCNc2ncccc2C(=O)N(C)C)CC1	1.30
CN(C)C(=O)c1cccnc1NCCCN1CCN(c2ccccc2O)CC1	1.80
COc1ccccc1N1CCN(CCCNc2cccc(C)c2C(=O)N(C)C)CC1	1.80
COc1cc(F)ccc1N1CCN(CCCNc2c(C(=O)N(C)C)cnc3c2c(C)nn3C)CC1	2.50
